// data source = patent US20150044226A1

system_under_test: T1, cynomolgus monkey PLD4 (cynomolgus monkey, UniProt Q96BZ4 1-506 (human entry))
T1 construct: also called cynomolgus monkey PLD4 protein; cyno PLD4
T1 chain: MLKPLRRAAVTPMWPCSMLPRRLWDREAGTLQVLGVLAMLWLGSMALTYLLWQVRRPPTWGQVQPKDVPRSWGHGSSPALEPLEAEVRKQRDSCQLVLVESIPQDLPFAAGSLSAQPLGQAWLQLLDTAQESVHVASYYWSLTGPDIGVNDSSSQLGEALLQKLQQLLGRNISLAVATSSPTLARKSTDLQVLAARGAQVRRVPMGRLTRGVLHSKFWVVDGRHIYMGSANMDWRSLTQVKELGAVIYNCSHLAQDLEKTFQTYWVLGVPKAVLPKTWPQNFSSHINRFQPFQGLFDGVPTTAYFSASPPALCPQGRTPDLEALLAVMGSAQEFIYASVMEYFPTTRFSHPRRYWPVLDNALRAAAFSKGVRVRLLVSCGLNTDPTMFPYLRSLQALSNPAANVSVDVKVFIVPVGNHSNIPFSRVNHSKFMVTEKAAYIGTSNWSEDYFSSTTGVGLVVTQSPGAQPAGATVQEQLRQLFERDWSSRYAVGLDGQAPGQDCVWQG
protocol_notes: FACS on cynomolgus monkey PLD4-CT125 cells (FIG. 16)

[
  {
    "binder": "anti-PLD4 mouse 5B7 antibody (antibody, V domains shown, Tested as hybridoma culture supernatant and as protein A purified antibody; also called mp5B7 (hybridoma)) VH: EVQLQQSGPELVKPGASVKISCKASGYTFTDYNLHWVKQSHGKSLEWIGYIYPYNGNTGYNQKFKRKATLTVDNSSGTVYMELRSLTSEDSAVYYCARGGIYDDYYDYAIDYWGQGTSVTVSS VL: DIQMTQSPASLSVSVGETVAITCRASENIYSHIAWYQQKEGKSPQRLVYGATNLAHGVPSRFSGSGSGTQYSLKINSLQSEDFGSYYCQHFWGTPWTFGGGTKLEIKR",
    "binding result": "binds"
  },
  {
    "binder": "anti-PLD4 mouse 7B4 antibody (antibody, mouse IgG2b, V domains shown, Tested as hybridoma culture supernatant and as purified antibody; also called mp7B4 (hybridoma)) VH: EVQLQQSGPELVKPGASVKISCKASGYTFTDYNLHWVKQSHGKSLEWIGYIYPYNGNTGYNQKFKRKATLTVDNSSGTVYMELRSLTSEDSAVYYCARGGIYDDYYDYAIDYWGQGTSVTVSS VL: DIQMTQSPASLSVSVGETVAITCRASENIYSHIAWYQQKEGKSPQRLVYGATNLAHGVPSRFSGSGSGTQYSLKINSLQSEDFGSYYCQHFWGTPWTFGGGTKLEIKR",
    "binding result": "binds"
  }
]
